- Tested on: NCI-H358 cells (express KRas G12C), Phospho-ERK
- procedure_details: Cellular inhibition of KRas G12C: Phospho-ERK in NCI-H358 cells
- Assay type: cell-based
- cond: pERK(Thr202/Tyr204) normalized with GAPDH; NCI-H358 cells; 3 hours; read-out: IC50
pIC50: −log10 of the molar value.

>  <compound>
C=CC(=O)N1CCN(c2nc(OC[C@@H]3CCCN3C)nc3c2CCN(c2ccc(F)cc2C(F)(F)F)C3)CC1CC#N (stereo partly shown) [Example 412]

>  <pIC50>
6.00 to 10.00

$$$$
>  <compound>
C=CC(=O)N1CCN(c2nc(OCCN(C)C)nc3c2CCN(c2ccccc2C(F)(F)F)C3)CC1CC#N (stereo not shown) [Example 296]

>  <pIC50>
6.00 to 10.00

$$$$
>  <compound>
C=CC(=O)N1CCN(c2nc(OCC(C)(C)N(C)C)nc3c2CCN(c2cccc4ccccc24)C3)CC1CC#N (stereo not shown) [Example 396]

>  <pIC50>
6.00 to 10.00

$$$$
>  <compound>
C=CC(=O)N1CCN(c2nc(OC[C@H]3COCCN3C)nc3c2CCN(c2cccc4ccccc24)C3)CC1CC#N (stereo partly shown) [Example 444]

>  <pIC50>
< 6.00

$$$$

====

- subject_of_test: KRas G12C (Homo sapiens, UniProt P01116, C118S/C51S/C80L/G12C)
- procedure_details: KRas G12C Modification Assay (LCMS detection of covalent adduct)
- Assay type: binding
- cond: normalized percent of control; tested at 5 μM concentration for 3 hours

>  <molecule>
C=CC(=O)N1CCN(c2nc(OC[C@@H]3CCCN3C)nc3c2CCN(c2c(C)c(C)cc4[nH]ncc24)C3)C[C@@H]1CC#N

>  <subject_of_test>
KRas G12C (Homo sapiens, UniProt P01116, C118S/C51S/C80L/G12C)

>  <POC>
C (“C”>50% POC)

$$$$
>  <molecule>
C=CC(=O)N1CCN(c2nc(O[C@H](C)CN(C)C)nc3c2CCN(c2cc(O)c(Cl)c4ccccc24)C3)CC1

>  <subject_of_test>
KRas G12C (Homo sapiens, UniProt P01116, C118S/C51S/C80L/G12C)

>  <POC>
A (“A”≤25% POC)

$$$$
>  <molecule>
C=CC(=O)N1CCN(c2nc(OC[C@@H]3CN(C)CCO3)nc3c2CCN(c2cccc4ccccc24)C3)CC1CC#N (stereo partly drawn) [Example 271]

>  <subject_of_test>
KRas G12C (Homo sapiens, UniProt P01116, C118S/C51S/C80L/G12C)

>  <POC>
C (“C”>50% POC)

$$$$
>  <molecule>
C=CC(=O)N1CCN(c2nc(OC(C)CN(C)C)nc3c2CCN(c2cc(O)cc4ccccc24)C3)CC1 (stereo not drawn)

>  <subject_of_test>
KRas G12C (Homo sapiens, UniProt P01116, C118S/C51S/C80L/G12C)

>  <POC>
C (“C”>50% POC)

$$$$
>  <molecule>
C=CC(=O)N1CCN(c2nc(OC[C@@H]3CCCN3CC(=O)N(C)C)nc3c2CCN(c2cccc4ccccc24)C3)C[C@@H]1CC#N

>  <subject_of_test>
KRas G12C (Homo sapiens, UniProt P01116, C118S/C51S/C80L/G12C)

>  <POC>
C (“C”>50% POC)

$$$$
>  <molecule>
C=CC(=O)N1CCN(c2nc(OCC3CN(C)CCN3)nc3c2CCN(c2cc(O)cc4ccccc24)C3)CC1 (stereo not drawn)

>  <subject_of_test>
KRas G12C (Homo sapiens, UniProt P01116, C118S/C51S/C80L/G12C)

>  <POC>
C (“C”>50% POC)

$$$$
>  <molecule>
CC(C)=CC(=O)N1CCN(c2nc(OC[C@@H]3CCCN3C)nc3c2CCN(c2cccc4ccccc24)C3)CC1CC#N (stereo partly drawn)

>  <subject_of_test>
KRas G12C (Homo sapiens, UniProt P01116, C118S/C51S/C80L/G12C)

>  <POC>
A (“A”≤25% POC)

$$$$
>  <molecule>
C=CC(=O)N1CCN(c2nc(OC[C@H]3CCN(C)C3)nc3c2CCN(c2cc(O)cc4ccccc24)C3)CC1

>  <subject_of_test>
KRas G12C (Homo sapiens, UniProt P01116, C118S/C51S/C80L/G12C)

>  <POC>
C (“C”>50% POC)

$$$$
>  <molecule>
C=CC(=O)N1CCN(c2nc(OCCCN3CCOCC3)nc3c2CCN(c2cc(O)cc4cc(C)ccc24)C3)CC1

>  <subject_of_test>
KRas G12C (Homo sapiens, UniProt P01116, C118S/C51S/C80L/G12C)

>  <POC>
C (“C”>50% POC)

$$$$
>  <molecule>
C=CC(=O)N1CCN(c2nc(N3CC[C@H](N(C)C)C3)nc3c2CCN(c2cccc4ccccc24)C3)C[C@@H]1CC#N

>  <subject_of_test>
KRas G12C (Homo sapiens, UniProt P01116, C118S/C51S/C80L/G12C)

>  <POC>
C (“C”>50% POC)

$$$$
>  <molecule>
C=CC(=O)N1CCN(c2nc(O[C@H](C)CN(C)C)nc3c2CCN(c2c(O)ccc(C)c2F)C3)CC1

>  <subject_of_test>
KRas G12C (Homo sapiens, UniProt P01116, C118S/C51S/C80L/G12C)

>  <POC>
A (“A”≤25% POC)

$$$$
>  <molecule>
CC#CC(=O)N1CCN(c2nc(OC[C@@H]3CCCN3C)nc3c2CCN(c2cccc4cccc(C)c24)C3)C[C@@H]1CC#N

>  <subject_of_test>
KRas G12C (Homo sapiens, UniProt P01116, C118S/C51S/C80L/G12C)

>  <POC>
C (“C”>50% POC)

$$$$
>  <molecule>
C=CC(=O)N1CCN(c2nc(OC[C@@H]3CCC(=O)N3)nc3c2CCN(c2cc(O)cc4ccccc24)C3)CC1

>  <subject_of_test>
KRas G12C (Homo sapiens, UniProt P01116, C118S/C51S/C80L/G12C)

>  <POC>
C (“C”>50% POC)

$$$$
>  <molecule>
C=CC(=O)N1CCN(c2nc(OC[C@H](O)CN3CCOCC3)nc3c2CCN(c2cc(O)cc4ccccc24)C3)CC1 (single isomer, unassigned)

>  <subject_of_test>
KRas G12C (Homo sapiens, UniProt P01116, C118S/C51S/C80L/G12C)

>  <POC>
C (“C”>50% POC)

$$$$
>  <molecule>
C=CC(=O)N1CCN(c2nc(OC[C@@H]3CCCN3C)nc3c2CCN(c2c(F)cccc2C(F)(F)F)C3)CC1CC#N (stereo partly drawn) [Example 275]

>  <subject_of_test>
KRas G12C (Homo sapiens, UniProt P01116, C118S/C51S/C80L/G12C)

>  <POC>
C (“C”>50% POC)

$$$$
>  <molecule>
C=CC(=O)N1CCN(c2nc(O[C@H](C)CN(C)C)nc3c2CCN(c2cc(O)cc(OC(F)(F)F)c2)C3)CC1

>  <subject_of_test>
KRas G12C (Homo sapiens, UniProt P01116, C118S/C51S/C80L/G12C)

>  <POC>
A (“A”≤25% POC)

$$$$
>  <molecule>
C=CC(=O)N1CCN(c2nc(OC[C@@H]3CCCN3C)nc3c2CCN(c2c(C)c(O)cc4ccccc24)C3)CC1

>  <subject_of_test>
KRas G12C (Homo sapiens, UniProt P01116, C118S/C51S/C80L/G12C)

>  <POC>
C (“C”>50% POC)

$$$$
>  <molecule>
C=CC(=O)N1CCN(c2nc(OCC(C)(C)N(C)C)nc3c2CCN(c2cccc4ccccc24)C3)CC1CC#N (stereo not drawn) [Example 269]

>  <subject_of_test>
KRas G12C (Homo sapiens, UniProt P01116, C118S/C51S/C80L/G12C)

>  <POC>
C (“C”>50% POC)

$$$$
>  <molecule>
C=CC(=O)N1CCN(c2nc(OC[C@H]3CCCN3C)nc3c2CCN(c2ccccc2C(F)(F)F)C3)CC1CC#N (stereo partly drawn) [Example 299]

>  <subject_of_test>
KRas G12C (Homo sapiens, UniProt P01116, C118S/C51S/C80L/G12C)

>  <POC>
C (“C”>50% POC)

$$$$
>  <molecule>
C=CC(=O)N1CCN(c2nc(OC[C@@H]3CCCN3C)nc3c2CCN(c2cccc(OC)c2C)C3)C[C@@H]1CC#N

>  <subject_of_test>
KRas G12C (Homo sapiens, UniProt P01116, C118S/C51S/C80L/G12C)

>  <POC>
C (“C”>50% POC)

$$$$
>  <molecule>
C=CC(=O)N1CCN(c2nc(O[C@H](C)CN(C)C)nc3c2CCN(c2cc(OC(F)(F)F)ccc2O)C3)CC1

>  <subject_of_test>
KRas G12C (Homo sapiens, UniProt P01116, C118S/C51S/C80L/G12C)

>  <POC>
A (“A”≤25% POC)

$$$$
>  <molecule>
C=CC(=O)N1CCN(c2nc(OCCCN3CCCOCC3)nc3c2CCN(c2cc(O)cc4ccccc24)C3)CC1

>  <subject_of_test>
KRas G12C (Homo sapiens, UniProt P01116, C118S/C51S/C80L/G12C)

>  <POC>
C (“C”>50% POC)

$$$$
>  <molecule>
C=CC(=O)N1CCN(c2nc(OC[C@@H]3CCCN3C)nc3c2CCN(c2nccc4ccccc24)C3)CC1CC#N (stereo partly drawn) [Example 289]

>  <subject_of_test>
KRas G12C (Homo sapiens, UniProt P01116, C118S/C51S/C80L/G12C)

>  <POC>
C (“C”>50% POC)

$$$$
>  <molecule>
C=CC(=O)N1CCN(c2nc(OC[C@@H]3CCCN3C)nc3c2CCN(c2cc(F)ccc2OC(F)(F)F)C3)CC1CC#N (stereo partly drawn)

>  <subject_of_test>
KRas G12C (Homo sapiens, UniProt P01116, C118S/C51S/C80L/G12C)

>  <POC>
C (“C”>50% POC)

$$$$
>  <molecule>
C=CC(=O)N1CCN(c2nc(OC3CCN(C4CC4)CC3)nc3c2CCN(c2cc(O)cc4ccccc24)C3)CC1

>  <subject_of_test>
KRas G12C (Homo sapiens, UniProt P01116, C118S/C51S/C80L/G12C)

>  <POC>
C (“C”>50% POC)

$$$$
>  <molecule>
C=CC(=O)N1CCN(c2nc(N3CCN(C)CC3)nc3c2CCN(c2cc(O)cc4ccccc24)C3)CC1

>  <subject_of_test>
KRas G12C (Homo sapiens, UniProt P01116, C118S/C51S/C80L/G12C)

>  <POC>
C (“C”>50% POC)

$$$$
